# Lookup of reported IC50 keyed by entry
Target Or Test System: Histone deacetylase 1 (Homo sapiens)
Sequence (Q13547 whole entry): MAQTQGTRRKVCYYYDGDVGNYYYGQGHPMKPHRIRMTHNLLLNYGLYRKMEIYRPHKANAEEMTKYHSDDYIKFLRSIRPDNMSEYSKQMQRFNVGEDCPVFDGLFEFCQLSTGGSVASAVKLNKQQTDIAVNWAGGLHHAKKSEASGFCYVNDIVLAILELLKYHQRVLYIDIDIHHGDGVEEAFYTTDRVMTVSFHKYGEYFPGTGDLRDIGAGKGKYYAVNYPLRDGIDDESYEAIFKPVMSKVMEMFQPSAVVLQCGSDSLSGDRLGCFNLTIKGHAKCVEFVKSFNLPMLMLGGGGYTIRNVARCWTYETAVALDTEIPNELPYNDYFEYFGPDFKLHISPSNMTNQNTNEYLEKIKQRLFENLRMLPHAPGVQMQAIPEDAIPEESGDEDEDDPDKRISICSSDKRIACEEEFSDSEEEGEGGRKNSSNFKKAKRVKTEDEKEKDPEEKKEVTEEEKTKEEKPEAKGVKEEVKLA
Assay Method Text: Inhibition of recombinant full length human HDAC-1 expressed in baculovirus expression system using acetyl-Gly-Ala-Lys(acetyl)-AMC as substrate after 2 hrs by fluorescence microplate reader analysis

In [3]: df
Out[3]:
                                smiles_code  recorded_endpoint   result
0  C[C@H](CN(C)Cc1ccccc1)NC(=O)c1ccc(-c2noc(C(F)(F)F)n2)nc1               IC50  > 10 µM

Below: the item to evaluate.
Assay Histone deacetylase 1 (Homo sapiens), sample CCN(CC)C[C@@H](C)NC(=O)c1ccc(-c2noc(C(F)(F)F)n2)nc1 , IC50 read: > 10 µM

###

Target Or Test System: Protein deacetylase HDAC6 (Homo sapiens, UniProt Q9UBN7)
Sequence (Q9UBN7 whole entry): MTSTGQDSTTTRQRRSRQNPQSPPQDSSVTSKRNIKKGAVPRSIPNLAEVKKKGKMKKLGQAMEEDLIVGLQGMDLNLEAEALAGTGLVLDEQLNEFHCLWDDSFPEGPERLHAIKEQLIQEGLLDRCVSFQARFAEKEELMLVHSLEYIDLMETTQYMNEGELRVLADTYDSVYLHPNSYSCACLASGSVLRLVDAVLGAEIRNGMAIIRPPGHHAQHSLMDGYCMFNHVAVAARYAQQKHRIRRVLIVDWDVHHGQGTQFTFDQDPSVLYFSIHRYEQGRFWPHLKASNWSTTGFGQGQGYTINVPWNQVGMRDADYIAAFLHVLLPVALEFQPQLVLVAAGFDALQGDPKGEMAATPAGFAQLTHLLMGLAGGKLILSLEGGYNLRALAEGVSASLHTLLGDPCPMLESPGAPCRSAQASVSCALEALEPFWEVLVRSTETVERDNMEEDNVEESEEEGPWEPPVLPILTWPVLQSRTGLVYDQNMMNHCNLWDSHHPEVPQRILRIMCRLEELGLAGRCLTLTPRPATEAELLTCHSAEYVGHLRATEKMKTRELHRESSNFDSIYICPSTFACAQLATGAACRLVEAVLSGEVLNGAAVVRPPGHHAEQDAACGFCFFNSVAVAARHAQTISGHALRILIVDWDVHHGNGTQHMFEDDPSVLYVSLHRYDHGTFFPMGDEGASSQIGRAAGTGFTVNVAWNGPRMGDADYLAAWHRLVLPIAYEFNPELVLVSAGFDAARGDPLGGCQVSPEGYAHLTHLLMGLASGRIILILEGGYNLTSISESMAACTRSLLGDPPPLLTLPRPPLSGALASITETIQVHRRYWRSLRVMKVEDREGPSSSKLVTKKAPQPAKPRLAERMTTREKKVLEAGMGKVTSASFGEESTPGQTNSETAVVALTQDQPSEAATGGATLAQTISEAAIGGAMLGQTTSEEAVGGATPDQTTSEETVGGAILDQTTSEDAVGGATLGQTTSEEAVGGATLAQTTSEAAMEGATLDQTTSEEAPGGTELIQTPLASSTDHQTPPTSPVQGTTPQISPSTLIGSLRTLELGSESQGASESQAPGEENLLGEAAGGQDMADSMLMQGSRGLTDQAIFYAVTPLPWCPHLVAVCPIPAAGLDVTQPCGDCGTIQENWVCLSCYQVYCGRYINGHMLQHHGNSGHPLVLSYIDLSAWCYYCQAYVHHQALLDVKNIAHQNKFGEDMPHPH
Assay Method Text: Inhibition of recombinant full length human HDAC-6 expressed in baculovirus expression system using acetyl-Gly-Ala-Lys(acetyl)-AMC as substrate after 2 hrs by fluorescence microplate reader analysis
pIC50: −log10 of the molar value.
Recorded Endpoint: pIC50

In [3]: df
Out[3]:
                                smiles_code                     target_or_test_system  recorded_endpoint  result
0  CCN(CC)C[C@@H](C)NC(=O)c1ccc(-c2noc(C(F)(F)F)n2)nc1  Protein deacetylase HDAC6 (Homo sapiens, UniProt Q9UBN7)              pIC50  < 5.00

Below: the item to evaluate.
Lab note: C[C@H](CN(C)Cc1ccccc1)NC(=O)c1ccc(-c2noc(C(F)(F)F)n2)nc1 gave pIC50 of < 5.00
